- target: T1, human mutCALR on BaF3 cells stably expressing human MPL and human mutCALR (MPL-mutCALR cells) (human)
- T1 construct: also called mutant calreticulin
- T1 chain: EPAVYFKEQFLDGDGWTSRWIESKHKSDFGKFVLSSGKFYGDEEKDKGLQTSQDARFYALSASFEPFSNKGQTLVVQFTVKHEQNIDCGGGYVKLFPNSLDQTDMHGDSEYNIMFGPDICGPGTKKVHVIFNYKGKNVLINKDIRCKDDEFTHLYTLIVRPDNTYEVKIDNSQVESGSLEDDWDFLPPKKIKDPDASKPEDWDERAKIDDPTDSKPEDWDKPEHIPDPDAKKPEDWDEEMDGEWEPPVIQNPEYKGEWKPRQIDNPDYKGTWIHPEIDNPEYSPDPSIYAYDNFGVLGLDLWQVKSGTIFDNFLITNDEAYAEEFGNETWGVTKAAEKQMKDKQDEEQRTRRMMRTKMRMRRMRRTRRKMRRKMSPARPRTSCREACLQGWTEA
- protocol text: flow cytometry, BaF3 MPL-mutCALR cells
MPL-mutCALR AUC overview
attribute measured: MPL-mutCALR AUC

INSERT INTO assay_data (binder, observed) VALUES
  ('anti-mutCALR antibody clone 70 (antibody, human IgG1, lambda, N297A, V domains shown) VH: EVQLVQSGAEVKKPGASVKVSCKVSGYTLTELSMQWVRQAPGKGLEWMGGFDPDDGETMYAEKFQGRLTVTEDTSTDTVYMELSSLRSEDTAVYFCATSPGYDFFDYWGQGTLVTVSS VL: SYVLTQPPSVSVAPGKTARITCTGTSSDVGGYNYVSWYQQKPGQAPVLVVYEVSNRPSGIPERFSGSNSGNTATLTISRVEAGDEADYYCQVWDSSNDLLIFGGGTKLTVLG', 84800),
  ('anti-mutCALR antibody clone 128 (antibody, human IgG1, lambda, N297A, V domains shown) VH: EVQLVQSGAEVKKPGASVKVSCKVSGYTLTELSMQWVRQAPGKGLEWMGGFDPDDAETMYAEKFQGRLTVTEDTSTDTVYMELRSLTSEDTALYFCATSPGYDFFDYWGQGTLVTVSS VL: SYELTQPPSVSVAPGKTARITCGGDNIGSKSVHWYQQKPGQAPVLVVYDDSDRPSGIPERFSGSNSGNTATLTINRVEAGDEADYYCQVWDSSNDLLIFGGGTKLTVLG', 88900),
  ('anti-mutCALR antibody clone 187 (antibody, human IgG1, lambda, N297A, V domains shown) VH: EVQLVQSGAEVKKPGASVKVSCKVSGYTLTELSMQWVRQAPGKGLEWMGGFDPDSGETMYAEKFQGRLTVTEDTSTDTVYMELSSLRSEDTAVYFCATSPGYDFFDYWGQGTLVTVSS VL: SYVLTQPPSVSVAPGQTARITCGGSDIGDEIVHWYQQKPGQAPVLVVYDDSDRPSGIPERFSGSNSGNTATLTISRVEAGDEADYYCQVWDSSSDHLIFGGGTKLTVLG', 49500),
  ('anti-mutCALR antibody clone 174 (antibody, human IgG1, lambda, N297A, V domains shown) VH: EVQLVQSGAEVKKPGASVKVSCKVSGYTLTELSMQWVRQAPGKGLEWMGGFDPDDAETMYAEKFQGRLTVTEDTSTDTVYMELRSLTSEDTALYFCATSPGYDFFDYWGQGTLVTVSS VL: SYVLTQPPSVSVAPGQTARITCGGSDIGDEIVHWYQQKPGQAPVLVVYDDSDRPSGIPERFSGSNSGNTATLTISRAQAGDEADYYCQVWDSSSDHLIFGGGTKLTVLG', 63500),
  ('anti-mutCALR antibody clone 3 (antibody, human IgG1, lambda, V domains shown, human IgG1) VH: EVQLVQSGAEVKKPGASVKVSCKVSGYTLTELSMQWVRQAPGKGLEWMGGFDPDDGETMYAERFQGRLTVTEDTSTDTVYMELRSLTSEDTALYFCATSPGYDFFDYWGQGTLVTVSS VL: SYVLTQPPSVSVAPGQTARITCGGNNIGSKSVHWYQQKPGQAPVLVVYDDSDRPSGIPERFSGSNSGNTATLTINRVEAGDEADYYCQVWDSSNDLLIFGGGTKLTVLG', 102000),
  ('anti-mutCALR antibody clone 40 (antibody, human IgG1, lambda, V domains shown, human IgG1) VH: EVQLVQSGAEVKKPGASVKVSCKVSGYTLTESSMHWVRQAPGKGLEWMGLVDPEDGETIYAQKFQGRVTMTEDTSTDTAYMELSSLRSEDTAVYYCAREEWSGDGDDAFDIWGQGTMVTVSS VL: QSVLTQPPSVSAAPGQKVTISCSGSSSNIGSYSVSWYQQLPGTAPKLLIYDNNKRPSGIPDRFSGSNSGTSATLGITGLQTGDEADYYCGTWDSSLSAWVFGGGTKLTVLG', 52900),
  ('anti-mutCALR antibody clone 53 (antibody, human IgG1, lambda, V domains shown, human IgG1) VH: QVQLVQSGAEVKKPGASVKVSCKVSGYTLTELSMHWVRQAPGKGLEWMGGFDPEDGETIYAQKFQGRVTMTEDTSTDTAYMELSSLRSEDTAVYYCATDIQGLAEFDYWGQGTLVTVSS VL: QSALTQPRSVSGSPGQSVTISCTGTNTDVGAYIDVSWYQQHPGKAPKLIIYDVSKWPSGVPDRFSGSKSGNTASLTISGLQAEDEADYYCCSYAGNHSFSFGGGTKVTVLG', 64600),
  ('anti-mutCALR antibody clone 184 (antibody, human IgG1, lambda, N297A, V domains shown) VH: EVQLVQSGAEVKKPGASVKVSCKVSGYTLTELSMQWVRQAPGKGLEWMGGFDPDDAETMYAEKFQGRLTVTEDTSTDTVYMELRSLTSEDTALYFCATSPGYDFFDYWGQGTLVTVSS VL: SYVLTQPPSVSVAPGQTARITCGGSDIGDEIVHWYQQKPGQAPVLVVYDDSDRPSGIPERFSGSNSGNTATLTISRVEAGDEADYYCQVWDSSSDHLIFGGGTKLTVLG', 61600),
  ('anti-mutCALR antibody clone 84 (antibody, human IgG1, lambda, N297A, V domains shown) VH: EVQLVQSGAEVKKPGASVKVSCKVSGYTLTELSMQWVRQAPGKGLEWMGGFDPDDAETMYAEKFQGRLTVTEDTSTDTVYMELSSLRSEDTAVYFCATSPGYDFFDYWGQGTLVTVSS VL: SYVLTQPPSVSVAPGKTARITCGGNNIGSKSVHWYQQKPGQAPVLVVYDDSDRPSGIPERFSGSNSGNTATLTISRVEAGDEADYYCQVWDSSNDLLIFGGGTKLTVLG', 82400),
  ('anti-mutCALR antibody clone 31 (antibody, human IgG1, lambda, V domains shown, human IgG1) VH: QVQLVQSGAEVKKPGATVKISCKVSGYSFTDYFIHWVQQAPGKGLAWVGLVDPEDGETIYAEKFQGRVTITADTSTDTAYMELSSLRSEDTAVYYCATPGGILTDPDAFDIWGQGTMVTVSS VL: QSALTQPASVSGSPGQSVTISCTGTSSDVGGYNYVSWYQHHPGKAPKLMIYDVNKRPSGVPDRFSGSKSGNTASLTISGLQAEDEADYYCSSYIPSSTRWVFGGGTKLTVLG', 45700);
